Biological target: human GCG receptor (human, UniProt P47871 26-477)
Sequence (P47871 26-477): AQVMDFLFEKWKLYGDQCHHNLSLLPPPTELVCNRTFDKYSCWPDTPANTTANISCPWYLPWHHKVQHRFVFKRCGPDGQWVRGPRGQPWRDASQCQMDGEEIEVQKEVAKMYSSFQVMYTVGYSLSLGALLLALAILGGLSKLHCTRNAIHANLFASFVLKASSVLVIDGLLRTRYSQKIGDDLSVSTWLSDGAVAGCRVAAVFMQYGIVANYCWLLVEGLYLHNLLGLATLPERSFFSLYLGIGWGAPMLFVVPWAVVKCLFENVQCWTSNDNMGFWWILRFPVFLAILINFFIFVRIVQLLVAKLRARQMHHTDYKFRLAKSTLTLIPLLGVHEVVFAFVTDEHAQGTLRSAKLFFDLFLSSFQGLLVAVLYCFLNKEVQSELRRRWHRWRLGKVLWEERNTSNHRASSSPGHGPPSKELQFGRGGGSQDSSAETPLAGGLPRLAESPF
Assay: cell-based or functional assay
Bridge positions count the residues as written; N and C are the ends. Square brackets hold non-standard residues; d marks the D form. Ends that are not written are not given here. * marks the point of attachment. Acetyl(2-(4-imidazolyl)) = O=C(Cc1c[nH]cn1)*; Aib = CC(C)(N)C(=O)O
Label 1 (yes) when In vitro activity compared with native peptide (%) vs Glucagon (cAMP EC50) >= 5%; otherwise 0 (no).

[Q] API: above_or_equal(metric=In vitro activity compared with native peptide (%) vs Glucagon (cAMP EC50), cutoff=5%) for item Y[Aib]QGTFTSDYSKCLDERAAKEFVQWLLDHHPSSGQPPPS (bridge 16-20) [triple agonist of SEQ ID NO: 69]
[A] 1 (yes)

[Q] Also {Acetyl(2-(4-imidazolyl))}-[Aib]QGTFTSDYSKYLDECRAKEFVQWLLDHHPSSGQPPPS (bridge 15-19) [triple agonist of SEQ ID NO: 73] ?
[A] 1 (yes)

[Q] Also H[Aib]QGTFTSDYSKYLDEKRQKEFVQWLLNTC (bridge 16-20) [triple agonist of SEQ ID NO: 51] ?
[A] 0 (no)

[Q] Also Y[Aib]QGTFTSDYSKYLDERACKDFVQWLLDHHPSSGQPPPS (bridge 16-20) [triple agonist of SEQ ID NO: 71] ?
[A] 1 (yes)

[Q] Also Y[Aib]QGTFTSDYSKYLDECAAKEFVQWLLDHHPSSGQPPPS (bridge 16-20) [triple agonist of SEQ ID NO: 64] ?
[A] 1 (yes)
